# system: T1, HIV peptide on HLA-A*24:02 (human)
# T1 peptide: RYPLTFGWCF
# test-summary: data from [18]; method not given; soluble, other
reported-endpoint: Kd (nM)

INSERT INTO assay_data (binder, reported_endpoint, numeric_readout) VALUES
  ('S19-2 (TCR) alpha TRDV1*01 CDR3: ALGELARSGGYQKVT beta TRBV30*01 CDR3: AWSVSVGAGVPTIY', 'Kd', 1600);
